Reference for the values: ChEMBL document CHEMBL5331058

ASSAY NAME: Aqueous solubility of compound by UV spectroscopy method
Type: physicochemical
RUN PARAMETERS: water
MEASUREMENT NAME: solubility (µg/mL)
Report the value in µg/mL with no unit label.

solubility in this record for COc1c(O)cc2oc(-c3ccc(O)cc3)cc(=O)c2c1O : 15.3
